# Kd per entry
# target-or-system: pRbAB (Homo sapiens, UniProt P06400, DEL590-635)
# Construct: untagged pRbAB (372-787 with the linker from 590-635 removed)
# Sequence (P06400 with tags, fused parts or gaps DEL590-635): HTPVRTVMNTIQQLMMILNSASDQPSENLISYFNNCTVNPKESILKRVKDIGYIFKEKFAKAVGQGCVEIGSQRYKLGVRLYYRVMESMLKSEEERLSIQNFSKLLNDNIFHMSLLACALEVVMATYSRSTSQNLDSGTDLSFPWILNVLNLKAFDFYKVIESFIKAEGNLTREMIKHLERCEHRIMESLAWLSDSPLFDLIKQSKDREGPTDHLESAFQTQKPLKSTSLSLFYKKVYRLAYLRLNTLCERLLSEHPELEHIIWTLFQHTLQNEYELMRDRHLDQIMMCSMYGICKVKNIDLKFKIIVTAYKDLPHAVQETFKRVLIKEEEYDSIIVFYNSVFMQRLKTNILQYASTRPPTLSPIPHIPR
# assay-summary: Isothermal titration calorimetry binding to pRbAB
# reported-conditions: ITC, pRbAB, 22° C.

{"molecule": "Cc1cccc(-n2sc(=O)n(C(C)C)c2=O)c1 [Compound 5]", "Kd [nM]": 210}
{"molecule": "COc1ccc(-n2sc(=O)n(C)c2=O)cc1 [Compound 6]", "Kd [nM]": 381}
{"molecule": "COn1c(=O)sn(-c2ccccc2C)c1=O [Compound 2]", "Kd [nM]": 104}
{"molecule": "Cc1ccccc1-n1sc(=O)n(C(C)C)c1=O [Compound 1]", "Kd [nM]": 165}
{"molecule": "Cc1cc(Cl)ccc1-n1sc(=O)n(C(C)C)c1=O [Compound 4]", "Kd [nM]": 187}
{"molecule": "COc1cccc(-n2sc(=O)n(C)c2=O)c1 [Compound 7]", "Kd [nM]": 815}
{"molecule": "Cc1ccccc1-n1sc(=O)n(C)c1=O [Compound 3]", "Kd [nM]": 106}

----------
# target-or-system: GST-pRbABC/6×His-Ad5E1ACR1-3 complex (Homo sapiens, UniProt P06400)
# Construct: E1A: E. coli BL21(DE3)
# assay-summary: ELISA: disruption of pRb/Ad5-E1A complex
# reported-conditions: disruption of pRb/viral oncoprotein complex; 100 nM E1A
pIC50: −log10 of the molar value.
quantity-kind: pIC50

{"item-smiles": "Cc1ccccc1-n1sc(=O)n(C)c1=O", "value-measured": 6.00}
{"item-smiles": "Cc1ccccc1-n1sc(=O)n(C(C)C)c1=O", "value-measured": 5.30}
{"item-smiles": "COn1c(=O)sn(-c2ccccc2C)c1=O", "value-measured": 5.59}
{"item-smiles": "COc1cccc(-n2sc(=O)n(C)c2=O)c1", "value-measured": 5.55}
{"item-smiles": "COc1ccc(-n2sc(=O)n(C)c2=O)cc1", "value-measured": 5.11}
{"item-smiles": "Cc1cccc(-n2sc(=O)n(C(C)C)c2=O)c1", "value-measured": 5.46}
{"item-smiles": "Cc1cc(Cl)ccc1-n1sc(=O)n(C(C)C)c1=O", "value-measured": 5.42}

----------
# target-or-system: GST-pRbABC/6×His-HPV1AE7CR2-3 complex (Homo sapiens)
# Construct: E7: E. coli BL21(DE3)
# Sequence (P06400 376-928): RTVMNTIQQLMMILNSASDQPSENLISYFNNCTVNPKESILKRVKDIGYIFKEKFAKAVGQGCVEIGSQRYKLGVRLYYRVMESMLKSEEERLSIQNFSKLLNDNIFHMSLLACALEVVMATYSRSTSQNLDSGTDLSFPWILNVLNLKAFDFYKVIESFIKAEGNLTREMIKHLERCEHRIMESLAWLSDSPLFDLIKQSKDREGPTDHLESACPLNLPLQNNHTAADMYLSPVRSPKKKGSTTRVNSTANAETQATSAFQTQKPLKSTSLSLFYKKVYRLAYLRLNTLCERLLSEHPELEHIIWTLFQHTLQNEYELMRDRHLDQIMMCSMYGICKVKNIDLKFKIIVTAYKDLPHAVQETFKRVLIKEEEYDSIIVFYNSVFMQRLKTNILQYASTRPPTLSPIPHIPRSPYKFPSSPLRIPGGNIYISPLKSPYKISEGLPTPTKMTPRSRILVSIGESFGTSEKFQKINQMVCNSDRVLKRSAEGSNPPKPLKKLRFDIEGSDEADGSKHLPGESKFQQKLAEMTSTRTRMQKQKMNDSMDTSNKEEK
# assay-summary: ELISA: disruption of pRb/HPV1A-E7 complex
# reported-conditions: disruption of pRb/viral oncoprotein complex; 500 nM 1AE7
# Description: A similar ELISA assay was used to assess the ability of the compounds to inhibit the ability of HPV16-E7-mediated disruption of E2F/pRb complexes. For these studies, 6×His-HPV1AE7CR2-3 and 6×His-Ad5E1ACR1-3, containing the L×C×E motif, were employed. The assay described above was modified in such a way that GST-pRbABC alone was added to HPV-E7CR2-3+ compound, HPV-E7CR2-3+DMSO, Ad5-E1ACR1-3+ compound, or Ad5-E1ACR1-3 DMSO. […]
quantity-kind: IC50

{"compound": "COc1ccc(-n2sc(=O)n(C)c2=O)cc1 [Compound 6]", "value-measured": "1.3 µM"}
{"compound": "COn1c(=O)sn(-c2ccccc2C)c1=O [Compound 2]", "value-measured": "3 µM"}
{"compound": "Cc1ccccc1-n1sc(=O)n(C(C)C)c1=O [Compound 1]", "value-measured": "7.9 µM"}
{"compound": "Cc1ccccc1-n1sc(=O)n(C)c1=O [Compound 3]", "value-measured": "3.4 µM"}
{"compound": "Cc1cccc(-n2sc(=O)n(C(C)C)c2=O)c1 [Compound 5]", "value-measured": "5.5 µM"}
{"compound": "Cc1cc(Cl)ccc1-n1sc(=O)n(C(C)C)c1=O [Compound 4]", "value-measured": "4.7 µM"}
{"compound": "COc1cccc(-n2sc(=O)n(C)c2=O)c1 [Compound 7]", "value-measured": "4 µM"}

----------
# target-or-system: GST-pRbABC/E2F complex disrupted by 6×His-HPV1AE7CR2-3 (Homo sapiens, UniProt P06400)
# Construct: E2F1 and E7: E. coli BL21(DE3)
# assay-summary: ELISA: inhibition of HPV1A-E7-mediated disruption of pRb/E2F complexes
# reported-conditions: E2F remaining bound to pRb; 500 nM 1AE7
Could you please mark met for values of IC50 below 4 µM and not met for values at or above it?

{"compound": "Cc1cc(Cl)ccc1-n1sc(=O)n(C(C)C)c1=O [Compound 4]", "target-or-system": "GST-pRbABC/E2F complex disrupted by 6×His-HPV1AE7CR2-3 (Homo sapiens, UniProt P06400)", "category-label": "not met"}
{"compound": "Cc1ccccc1-n1sc(=O)n(C(C)C)c1=O [Compound 1]", "target-or-system": "GST-pRbABC/E2F complex disrupted by 6×His-HPV1AE7CR2-3 (Homo sapiens, UniProt P06400)", "category-label": "not met"}
{"compound": "Cc1ccccc1-n1sc(=O)n(C)c1=O [Compound 3]", "target-or-system": "GST-pRbABC/E2F complex disrupted by 6×His-HPV1AE7CR2-3 (Homo sapiens, UniProt P06400)", "category-label": "not met"}
{"compound": "COn1c(=O)sn(-c2ccccc2C)c1=O [Compound 2]", "target-or-system": "GST-pRbABC/E2F complex disrupted by 6×His-HPV1AE7CR2-3 (Homo sapiens, UniProt P06400)", "category-label": "met"}
{"compound": "COc1cccc(-n2sc(=O)n(C)c2=O)c1 [Compound 7]", "target-or-system": "GST-pRbABC/E2F complex disrupted by 6×His-HPV1AE7CR2-3 (Homo sapiens, UniProt P06400)", "category-label": "met"}
{"compound": "COc1ccc(-n2sc(=O)n(C)c2=O)cc1 [Compound 6]", "target-or-system": "GST-pRbABC/E2F complex disrupted by 6×His-HPV1AE7CR2-3 (Homo sapiens, UniProt P06400)", "category-label": "met"}
{"compound": "Cc1cccc(-n2sc(=O)n(C(C)C)c2=O)c1 [Compound 5]", "target-or-system": "GST-pRbABC/E2F complex disrupted by 6×His-HPV1AE7CR2-3 (Homo sapiens, UniProt P06400)", "category-label": "not met"}
